The values you see were collected from the Human Domainome abundance scans (Beltran et al. 2025).

B1: Zinc finger homeobox protein 4, residues 2183 to 2238; numbered along this chain, Q86UP3 (parent)
chain: SSRTRFTDYQLRVLQDFFDTNAYPKDDEIEQLSTVLNLPTRVIVVWFQNARQKARK

variants of: B1; assay: abundance fitness (aPCA) (normalised: wild type 0, dead -1); higher = more abundant; growth selection in yeast, the domain comes from the species named; conditions: Homo sapiens
Rule: abundance fitness of -0.2 or more gives Yes; anything lower gives No.

• SSRTRFTDYQLRVLQDFFDTNAYPKDDEIEQLSTVENLPTRVIVVWFQNARQKARK [L36E] = No
• SSRTRFTDTQLRVLQDFFDTNAYPKDDEIEQLSTVLNLPTRVIVVWFQNARQKARK [Y9T] = Yes
• SSRTRFTDYQLRVLQDFFDTNAYPKDDEKEQLSTVLNLPTRVIVVWFQNARQKARK [I29K] = No
• SSRTRFTDYQLRVLQDFFDTNAYPKDDEIEQSSTVLNLPTRVIVVWFQNARQKARK [L32S] = No
• SSRTRFTDYQLRVLQDFFDTNAYPYDDEIEQLSTVLNLPTRVIVVWFQNARQKARK [K25Y] = No
• SSRTRFTDYQLRVLQDFNDTNAYPKDDEIEQLSTVLNLPTRVIVVWFQNARQKARK [F18N] = No
• SSRTRFTDYQLRVLQDFFDTNAYPKDDEIEQNSTVLNLPTRVIVVWFQNARQKARK [L32N] = No
• SSRTRFTDYQLRVLQDFFDTNAYPKDDEIEQLSTVANLPTRVIVVWFQNARQKARK [L36A] = Yes
• SSRTRFTDYQLRVLQDFFDTQAYPKDDEIEQLSTVLNLPTRVIVVWFQNARQKARK [N21Q] = No
• SSRTRFTDYQLRVLQAFFDTNAYPKDDEIEQLSTVLNLPTRVIVVWFQNARQKARK [D16A] = Yes
• SSRTRFTDYQLRVLQDFFDTNAYPKDDEIEQLCTVLNLPTRVIVVWFQNARQKARK [S33C] = No
• SSRTRFTDYQLRVLQDFFDTNAYDKDDEIEQLSTVLNLPTRVIVVWFQNARQKARK [P24D] = No
• SSRTRFTDYQLRVLQDFFDHNAYPKDDEIEQLSTVLNLPTRVIVVWFQNARQKARK [T20H] = Yes
• SSWTRFTDYQLRVLQDFFDTNAYPKDDEIEQLSTVLNLPTRVIVVWFQNARQKARK [R3W] = Yes
• SSRTRFTDYQLRVLQDFFDTNMYPKDDEIEQLSTVLNLPTRVIVVWFQNARQKARK [A22M] = Yes
• SSRTRFKDYQLRVLQDFFDTNAYPKDDEIEQLSTVLNLPTRVIVVWFQNARQKARK [T7K] = No
• SSRTRFTIYQLRVLQDFFDTNAYPKDDEIEQLSTVLNLPTRVIVVWFQNARQKARK [D8I] = No
• SSRTRFTDYQLRVLQDFFCTNAYPKDDEIEQLSTVLNLPTRVIVVWFQNARQKARK [D19C] = No
• SSRTRFTDYQLRVLQDFFDENAYPKDDEIEQLSTVLNLPTRVIVVWFQNARQKARK [T20E] = No
• SSRTRFTDYKLRVLQDFFDTNAYPKDDEIEQLSTVLNLPTRVIVVWFQNARQKARK [Q10K] = No
• SSRTRFTDYQLRVLQIFFDTNAYPKDDEIEQLSTVLNLPTRVIVVWFQNARQKARK [D16I] = No
• SFRTRFTDYQLRVLQDFFDTNAYPKDDEIEQLSTVLNLPTRVIVVWFQNARQKARK [S2F] = No
• SSRTRFTDYQLRVLQDFFDTNAYPKDDEIEQLSTVTNLPTRVIVVWFQNARQKARK [L36T] = Yes
• SSRTRFTDYQLRVLQDFFDTNAYPKDDEIEQLSHVLNLPTRVIVVWFQNARQKARK [T34H] = Yes
• FSRTRFTDYQLRVLQDFFDTNAYPKDDEIEQLSTVLNLPTRVIVVWFQNARQKARK [S1F] = Yes
• YSRTRFTDYQLRVLQDFFDTNAYPKDDEIEQLSTVLNLPTRVIVVWFQNARQKARK [S1Y] = No
• SSRTRFTDYQLRVLQDFFDTNAYPKDDGIEQLSTVLNLPTRVIVVWFQNARQKARK [E28G] = No
• SSRTRFTDYQGRVLQDFFDTNAYPKDDEIEQLSTVLNLPTRVIVVWFQNARQKARK [L11G] = Yes
• SSRTRFTDYQLRVLQDFFDTTAYPKDDEIEQLSTVLNLPTRVIVVWFQNARQKARK [N21T] = Yes
